Reported values of glycan array binding signal (z-score) for individual entries
# Test system: Gal3S(b1-3)GlcNAc
# Method description: glycan array binding signal (z-score within array); higher = stronger binding
# Measurement conditions: glycan notation: IUPAC condensed, linker removed
The entries come from a sample that favours the strongest signals as a whole.
Value kind: glycan array binding signal (z-score)

binder="Epa20 (Candida glabrata) (protein) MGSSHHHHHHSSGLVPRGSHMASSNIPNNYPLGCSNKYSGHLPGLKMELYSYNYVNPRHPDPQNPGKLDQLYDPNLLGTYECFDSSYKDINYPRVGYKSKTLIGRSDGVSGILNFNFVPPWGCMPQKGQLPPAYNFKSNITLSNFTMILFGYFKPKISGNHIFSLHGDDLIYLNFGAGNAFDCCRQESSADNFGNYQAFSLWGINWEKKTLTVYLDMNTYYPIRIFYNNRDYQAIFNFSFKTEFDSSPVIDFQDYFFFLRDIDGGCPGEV" value_reported=-0.241
binder="BC2L-A (Burkholderia cenocepacia), Q1BKJ8_BURCA (protein) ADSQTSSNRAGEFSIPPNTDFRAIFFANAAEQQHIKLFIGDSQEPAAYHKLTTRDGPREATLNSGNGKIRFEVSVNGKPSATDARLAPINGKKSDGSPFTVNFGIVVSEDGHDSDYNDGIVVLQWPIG" value_reported=0.002
binder="Protein L(B1-B4) (Finegoldia magna), Q51912 (protein) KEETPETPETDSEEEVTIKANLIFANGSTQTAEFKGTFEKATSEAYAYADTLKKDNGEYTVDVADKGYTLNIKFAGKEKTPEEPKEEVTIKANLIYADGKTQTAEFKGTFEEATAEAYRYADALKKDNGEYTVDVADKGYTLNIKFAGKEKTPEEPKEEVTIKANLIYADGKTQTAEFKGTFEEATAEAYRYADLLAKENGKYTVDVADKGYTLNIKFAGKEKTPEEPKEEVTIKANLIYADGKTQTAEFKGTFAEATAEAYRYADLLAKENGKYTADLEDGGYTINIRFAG" value_reported=-0.911
